# assay_text: Cytotoxicity against human NCI-H630 cells after 72 hrs by MTT assay
# Type: cell-based
# condition_label: NCI-H630 cells
readout_name: CC50 at 72 h

{"structure_smiles_string": "O=C(O)c1cc(OCc2ccc(F)cc2)ccc1O", "CC50 at 72 h": "> 40 µM"}
{"structure_smiles_string": "COc1cc(S(=O)(=O)N2CCCCC2)cc(C(=O)NCc2ccco2)c1O", "CC50 at 72 h": "> 25 µM"}
{"structure_smiles_string": "O=C(O)c1c(O)cccc1OCc1ccc(F)cc1", "CC50 at 72 h": "> 40 µM"}

API: the following record is the query input.
Quick check: CC50 at 72 h of CNC(=O)c1cc(F)ccc1CNC(=O)c1cccc(O)c1O ? > 40 µM
